# Assay system: human SCD1 (Homo sapiens)
# Construct: expressed in transfected cells; host or cells: yeast strain with OLE1 deleted, plasmid-borne human SCD1 (selected in SD-Ura)
# Sequence (O00767 whole entry): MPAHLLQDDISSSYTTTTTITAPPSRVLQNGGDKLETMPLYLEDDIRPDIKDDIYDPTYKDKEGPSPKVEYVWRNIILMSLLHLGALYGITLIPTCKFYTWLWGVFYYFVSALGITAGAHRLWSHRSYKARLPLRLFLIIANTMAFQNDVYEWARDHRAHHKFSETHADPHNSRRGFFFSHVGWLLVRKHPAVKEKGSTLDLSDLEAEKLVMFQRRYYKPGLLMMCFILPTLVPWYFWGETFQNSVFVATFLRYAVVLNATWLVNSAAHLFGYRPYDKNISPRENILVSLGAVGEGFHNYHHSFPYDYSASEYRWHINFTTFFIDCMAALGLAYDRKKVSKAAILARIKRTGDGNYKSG
# Assay method text: Growth inhibition of yeast strain expressing human SCD1 as sole desaturase (OLE1 deleted), OD600 readout
# Type: cell-based
# Applied conditions: yeast strain expressing human SCD1 as sole desaturase; growth (OD600) after 40 h at 30° C.; read-out: SCD1 IC50
pIC50: −log10 of the molar value.
Let's look at some compounds and their measured pIC50.
Reported metric: pIC50

{"columns": ["Compound", "Reported metric", "Comparative sign", "Reading"],
 "data": [
  ["Cn1cc(C(=O)Nc2ccc(Cc3ccc(F)c(F)c3)cn2)n(C)c1=O [Compound 643]", "pIC50", "=", 7.14],
  ["Cn1nc(C(=O)Nc2nnc(Cc3ccc(F)c(Cl)c3)s2)ccc1=O [Compound 347]", "pIC50", "=", 6.17],
  ["Cn1cc(C(=O)Nc2ccc(Oc3ccc(F)c(F)c3)cn2)ccc1=O [Compound 587]", "pIC50", "=", 4.77],
  ["Cn1nc(C(=O)Nc2ccc(Cc3cccc(F)c3)cc2)ccc1=O [Compound 4]", "pIC50", "=", 5.76],
  ["CN1N=C(C(=O)Nc2ccc(Cc3cccs3)nn2)CCC1=O [Compound 271]", "pIC50", "<", 4.35],
  ["N#Cc1cc(Cl)cc(Cc2ccc(NC(=O)c3cnc(C#N)cn3)nc2)c1 [Compound 677]", "pIC50", "<", 4.35],
  ["Cc1cc(NC(=O)C2=NN(C)C(=O)CC2)ncc1Cc1cccc(Cl)c1 [Compound 123]", "pIC50", "<", 4.35],
  ["CN1N=C(C(=O)Nc2ccc(Cc3cccc(C=O)c3)cn2)CCC1=O [Compound 440]", "pIC50", "<", 4.35],
  ["O=C(Nc1ccc(Cc2cccc(Cl)c2)cn1)c1ccc(=O)n(C2COC2)c1 [Compound 273]", "pIC50", "<", 4.35]
]}
